Record form. Attribute: solubility. Fill in for each entry.
Assay: physchem
Settings: buffer, pH 1.2
Description: Solubility of compound at pH 1.2
Only the number, expressed in µg/mL, is required.

Exercise: # return recorded solubility for input CC(Oc1ccc(NC(=O)c2cc3cc(Cl)ccc3[nH]2)c(NC(=O)c2nc3c(s2)CN(C)CC3)c1)C(=O)O (configuration not stated)
Solution: 256

Exercise: Using the record for "CCOC(=O)c1ccc(NC(=O)c2nc3c(s2)CN(C)CC3)c(NC(=O)c2cc3cc(Cl)ccc3[nH]2)c1" , state its measured solubility.
Solution: 1.1
